Target: T1, alpha subunit of the human FcεRI receptor (IgE high affinity receptor), expressed on Chinese hamster ovary … (human, UniProt P12319 26-257)
T1 construct: whole, on cells; also called CHO FcεRI+ cells; FcεRIα
T1 sequence (looked up): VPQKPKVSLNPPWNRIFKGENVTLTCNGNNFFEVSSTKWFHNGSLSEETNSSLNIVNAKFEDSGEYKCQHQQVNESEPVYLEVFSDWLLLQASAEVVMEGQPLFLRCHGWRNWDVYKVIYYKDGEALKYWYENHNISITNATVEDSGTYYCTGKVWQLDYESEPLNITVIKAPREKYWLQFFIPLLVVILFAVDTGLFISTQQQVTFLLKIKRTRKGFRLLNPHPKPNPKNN
Assay: inhibition of 125I-IgE binding to CHO cells expressing human FcεRI alpha; competitor IgE
pIC50: −log10 of the molar value. Bridges are numbered along the chain shown (N, C = ends). Where no end group is shown, it is not given here. [ ]: non-standard residue; d: D form. Pip = O=C(O)[C@@H]1CCCCN1; Ava = NCCCCC(=O)O
Would you please tag the item True when its pIC50 is 7 or above, and False when it is below?

Reference set (8 entries):
VQCPHFCYELDYELCPDVCYV-NH2 (not fully specified (bridges); cysteine pairing not given here) [IGE134] :: True
VQCPHFCYELDYELCPDVCY-NH2 (not fully specified (bridges); cysteine pairing not given here) [IGE153] :: True
VQCPHFCYELDYELCPWKCYT-NH2 (not fully specified (bridges); cysteine pairing not given here) [IGE174] :: False
VQCPHFCYDASRLCPDVCYV-NH2 (disulfide (positions not given here); not fully specified (bridges); printed as VQCPHFCYDASRLCPDVCYV-nh2) [IGE183] :: True
ALCPAVCYV-NH2 (disulfide 3-7 (inferred); also: synthesized as monomer, spontaneously formed a dimer) [IGE037] :: False
VQCPHFCYEL[Ava]ELCPDVCYV-NH2 (disulfide 7-14, 3-18) [IGE186] :: False
VQCPDFCY[Ava]CPDVCYV-NH2 (disulfide (positions not given here); not fully specified (bridges); printed as VQCPDFCYavaCPDVCYV-nh2) [IGE202] :: False
VQCPHFCYVGGKALCPDPCYV-NH2 (cysteine pairing not given here) [IGE149] :: False

Incoming: Threshold query (pIC50 >= 7) on VKCPSLCYVGGKALCPDVCYV-NH2 (not fully specified (bridges); cysteine pairing not given here) [IGE123]
Outgoing: False

Incoming: Threshold query (pIC50 >= 7) on VQC[Pip]HFCYFGGAELCPDVCYV-NH2 (disulfide 7-15, 3-19) [IGE162-2]
Outgoing: False

Incoming: Threshold query (pIC50 >= 7) on VQCPHFCYFGGAELC[Pip]DVCYV-NH2 (disulfide 7-15, 3-19) [IGE161-2]
Outgoing: False

Incoming: Threshold query (pIC50 >= 7) on KSCPLWCYVGGKALCPDVCYV-NH2 (not fully specified (bridges); cysteine pairing not given here) [IGE128]
Outgoing: False
